The reported numbers originate from patent US20220133679A1.

- Assay Method Text: in vivo
- Measurement Context: female, FVB (wildtype), mouse, in vivo, iv, 33 mg/kg, Docetaxel plasma AUC(0-1 h), mean
Attribute Measured: AUC(0-t) (ng·h/mL)

Compound: CC(=O)O[C@@]12CO[C@@H]1C[C@H](O)[C@@]1(C)C(=O)[C@H](O)C3=C(C)[C@@H](OC(=O)[C@H](O)[C@@H](NC(=O)OC(C)(C)C)c4ccccc4)C[C@@](O)([C@@H](OC(=O)c4ccccc4)[C@H]21)C3(C)C [docetaxel]
Numeric Value: 53300

====

- Assay Method Text: Plasma concentrations in the brain penetration studies
- Measurement Context: female, FVB (wildtype), mouse, in vivo, iv, 5 mg/kg, Loperamide plasma AUC(0-1 h), individual animals, loperamide alone
Attribute Measured: AUC(0-t) (µg·h/mL)

Molecule: CN(C)C(=O)C(CCN1CCC(O)(c2ccc(Cl)cc2)CC1)(c1ccccc1)c1ccccc1 [loperamide]
Numeric Value: 0.74
